Let's look at some sequences and their measured log2 fold change of degron read counts.
tgt: T1, CRBN, Q96SW2
T1 chain: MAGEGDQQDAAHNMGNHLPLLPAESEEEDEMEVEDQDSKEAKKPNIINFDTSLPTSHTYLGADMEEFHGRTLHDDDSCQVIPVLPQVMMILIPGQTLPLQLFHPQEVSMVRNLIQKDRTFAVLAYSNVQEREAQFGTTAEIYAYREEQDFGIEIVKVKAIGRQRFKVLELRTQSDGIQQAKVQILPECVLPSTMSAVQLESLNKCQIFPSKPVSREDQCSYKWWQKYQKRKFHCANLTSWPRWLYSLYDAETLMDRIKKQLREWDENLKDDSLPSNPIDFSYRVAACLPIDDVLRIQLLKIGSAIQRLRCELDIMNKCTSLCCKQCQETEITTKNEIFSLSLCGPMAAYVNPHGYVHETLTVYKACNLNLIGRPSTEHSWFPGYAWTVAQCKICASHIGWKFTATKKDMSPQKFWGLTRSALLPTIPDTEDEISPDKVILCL
measurement.protocol: log2 fold change of degron read counts, EGFP-low vs EGFP+ sorted cells (limma voom), compound-induced degradation; higher = more compound-induced degradation of the degron-EGFP fusion; degrons are variants of IKZF1/3 zinc finger 2; compound dose not given here;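 further: pooled lentiviral library of zinc finger degron-EGFP fusions in mCherry-positive Jurkat cells, FACS-sorted after compound exposure, with degron abundance counted by next-generation sequencing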
measurement.context: Jurkat; 18 h; compound: compound 19 (5-tert-butyl-thalidomide)
Whole data set: some 8,300 sequences, median “log2 fold change of degron read counts, EGFP-low vs EGFP+ sorted cells (limma voom), compound-induced degradation” near -1.1, cut for the highest 2% near 3.2. What follows is part of a selection rich in the highest values, with near analogues and random picks from the rest.

[
  {
    "sequence.entry": "FACNQCGHHFTQKGNLLRHIKL [46F_47A_49N_50Q_52G_53H_54H_55F_67L_, Q9UKT9]",
    "log2 fold change of degron read counts": -2.3
  },
  {
    "sequence.entry": "FLCNICGAAFTQKGNLLRHIKL [46F_47L_49N_50I_52G_53A_54A_55F_67L_, Q9UKT9]",
    "log2 fold change of degron read counts": -0.363
  },
  {
    "sequence.entry": "FHCEICGAVFTQKGNLLRHIKL [46F_47H_49E_50I_52G_53A_54V_55F_67L_, Q9UKT9]",
    "log2 fold change of degron read counts": 1.69
  },
  {
    "sequence.entry": "FACEQCGAYFTQKGNLLRHIKL [46F_47A_49E_50Q_52G_53A_54Y_55F_67L_, Q9UKT9]",
    "log2 fold change of degron read counts": -0.764
  },
  {
    "sequence.entry": "FMCEICGAVFTQKGNLLRHIKL [46F_47M_49E_50I_52G_53A_54V_55F_67L_, Q9UKT9]",
    "log2 fold change of degron read counts": -1.1
  },
  {
    "sequence.entry": "FNCEICGAVFTQKGNLLRHIKL [46F_47N_49E_50I_52G_53A_54V_55F_67L_, Q9UKT9]",
    "log2 fold change of degron read counts": 1.15
  },
  {
    "sequence.entry": "FECEICGAVFTQKGNLLRHIKL [46F_47E_49E_50I_52G_53A_54V_55F_67L_, Q9UKT9]",
    "log2 fold change of degron read counts": -0.462
  }
]
